target or test system: Apoptosis regulator Bcl-2 (Homo sapiens, UniProt P10415)
Sequence (P10415 whole entry): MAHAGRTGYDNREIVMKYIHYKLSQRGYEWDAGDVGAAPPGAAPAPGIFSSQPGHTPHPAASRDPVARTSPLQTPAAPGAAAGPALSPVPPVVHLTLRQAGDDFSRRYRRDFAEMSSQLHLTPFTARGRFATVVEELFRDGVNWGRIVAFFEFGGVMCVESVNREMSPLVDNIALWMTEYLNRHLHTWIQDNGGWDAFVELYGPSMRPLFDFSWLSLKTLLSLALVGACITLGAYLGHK
observation type: Ki (µM)
State the answer as a number, implicitly in µM.

Briefly, Ki measured for COc1c(Cc2ccccc2C(C)C)cc(C(=O)Nc2ccc(S(=O)(=O)c3ccccc3C(C)(C)C)cc2)c(OC)c1OC : 25

====

Reported pKi values are given for each entry in this list.
target or test system: Induced myeloid leukemia cell differentiation protein Mcl-1 (Homo sapiens)
Sequence (Q07820 whole entry): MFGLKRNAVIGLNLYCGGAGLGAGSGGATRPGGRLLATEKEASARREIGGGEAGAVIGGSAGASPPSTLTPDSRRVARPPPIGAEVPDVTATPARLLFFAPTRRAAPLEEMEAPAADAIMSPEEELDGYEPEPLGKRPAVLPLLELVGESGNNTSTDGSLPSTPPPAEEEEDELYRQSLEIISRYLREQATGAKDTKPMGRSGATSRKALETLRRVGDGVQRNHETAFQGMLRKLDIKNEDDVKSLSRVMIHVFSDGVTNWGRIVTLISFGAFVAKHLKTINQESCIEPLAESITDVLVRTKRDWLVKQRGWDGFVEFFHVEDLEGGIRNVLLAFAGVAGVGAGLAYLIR
test protocol: Displacement of FAM-Bid from human Mcl1 by FP assay
In plain terms, pKi is the concentration in mol/L turned into minus its base-10 logarithm.

smiles notation: Cc1cc2c(C(C)C)c(O)c(O)c(C=O)c2c(O)c1-c1c(C)cc2c(C(C)C)c(O)c(O)c(C=O)c2c1O
pKi: 6.74

Param item: CC(C)c1ccccc1Cc1cc(C(=O)Nc2ccc(S(=O)(=O)c3ccccc3C(C)(C)C)cc2)c(O)c(O)c1O ; param system: Induced myeloid leukemia cell differentiation protein Mcl-1 (Homo sapiens); output pKi: 6.59

====

target or test system: UniProt:Q07817
Sequence (Q07817 whole entry): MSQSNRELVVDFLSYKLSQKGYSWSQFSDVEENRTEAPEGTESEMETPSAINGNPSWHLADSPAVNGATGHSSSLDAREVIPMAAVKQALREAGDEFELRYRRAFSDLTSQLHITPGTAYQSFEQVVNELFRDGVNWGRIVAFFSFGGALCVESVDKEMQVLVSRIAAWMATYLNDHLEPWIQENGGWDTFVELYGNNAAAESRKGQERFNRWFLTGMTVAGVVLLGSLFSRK
observation type: IC50 (µM)
Your answer is read as µM, so omit the unit and give the number.

Observed IC50 on UniProt:Q07817, entry CC(C)c1ccccc1Cc1cc(C(=O)Nc2ccc(S(=O)(=O)c3ccccc3C(C)(C)C)cc2)c(O)c(O)c1O , equals 6.58
